Where do the numbers come from? From ChEMBL document CHEMBL3885861.

Organism: Rattus norvegicus
Assay: Open TG-GATES - Regimen: Single
Type: toxicity, organism-based, Sprague-Dawley
Set-up: regimen Single, gender Male, age 6 weeks
Conditions: in vivo, po, 0 mg/kg, 9 h, tissue Plasma, route gavage, dose level Control
Measurement label: log10 of TBIL (log10 of the value in mg/dL)
Note the log scale: values are log10 of TBIL expressed in mg/dL.

Find the measured log10 of TBIL of OCCN1CCN(CCCN2c3ccccc3Sc3ccc(C(F)(F)F)cc32)CC1 and report it.
-0.52

Find the measured log10 of TBIL of C=C(C)[C@H]1Cc2c(ccc3c2O[C@@H]2COc4cc(OC)c(OC)cc4[C@@H]2C3=O)O1 and report it.
-1.30

Find the measured log10 of TBIL of Cc1ccc2cc3c(ccc4ccccc43)c3c2c1CC3 and report it.
-2.22

Find the measured log10 of TBIL of Cc1cccc(C)c1OCC(C)N (centres undefined) and report it.
-1.70

Find the measured log10 of TBIL of Cn1cc[nH]c1=S and report it.
-1.85

Find the measured log10 of TBIL of C[C@H]1O[C@H](O[C@H]2[C@H](O)[C@@H](O)[C@@H](O[C@H]3[C@H](O)[C@@H](O)C(O)O[C@@H]3CO)O[C@@H]2CO)[C@H](O)[C@@H](O)[C@@H]1N[C@H]1C=C(CO)[C@@H](O)[C@H](O)[C@H]1O (some centres undefined) and report it.
-1.22

Find the measured log10 of TBIL of O=[N+]([O-])c1ccc(O)c([N+](=O)[O-])c1 and report it.
-1.36

Find the measured log10 of TBIL of CCOC(=O)C(C)(C)Oc1ccc(Cl)cc1 [CLOFIBRATE] and report it.
-1.00

Find the measured log10 of TBIL of C[C@H]1C(=O)O[C@@H]2CCN3CC=C(COC(=O)[C@](C)(O)[C@]1(C)O)[C@H]23 and report it.
-1.55
